- SYSTEM UNDER TEST: RBD protein of SARS-COV-2 (Severe acute respiratory syndrome coronavirus 2, UniProt P0DTC2)
MEASURED PROPERTY: RBD recognition ability of mouse serum IgG

SEQUENCE RECORD	MEASURED RESULT
EVRQIAPGQTGKIADYNYKLPD [#8]	high
SNLKPFERDISTEIYQAGSTPC [#11]	high
NATRFASVYAWNRKRISNC [#3]	high

These entries and their values trace back to patent US20240358818A1.
